Target: UniProt O15245
Assay: Inhibition of human OCT1 expressed in HEK293 cells assessed as decrease in uptake of ASP+ after 2 mins by fluorescence assay
Type: cell-based
Kindly state IC50 for each of the entries shown.
Numeric answer only, unit µM assumed.

// field: IC50; key: "Clc1cccc(Cl)c1N=C1NCCN1" ; value = 19

Lookup result for "Clc1ccccc1C(c1ccccc1)(c1ccccc1)n1ccnc1" ; measured IC50: 12

GET /value?item= "CN(C)CCCN1c2ccccc2CCc2ccccc21" &field=IC50 returns 7.95

Per the record, "COC1=CC(=O)C[C@@H](C)[C@]12Oc1c(Cl)c(OC)cc(OC)c1C2=O" has IC50 of 7.3

# IC50 (molecule: COc1cc2nc(N(C)CCCNC(=O)C3CCCO3)nc(N)c2cc1OC (stereo not given) ) is 14.9

The molecule identified as "Oc1c(Cl)cc(Cl)cc1Sc1cc(Cl)cc(Cl)c1O" registered its IC50 at 2.23

For reference, reported IC50 for "CNCCCN1c2ccccc2CCc2ccccc21" stands at 9.18

// recorded IC50 for "Oc1ccc(Cl)cc1Cc1cc(Cl)ccc1O" : 8.41

Field IC50 (entry "Nc1c2c(nc3ccccc13)CCCC2" ) reads 21.7

Just so you know, measured IC50 for "CCc1nc(N)nc(N)c1-c1ccc(Cl)cc1" came out at 13.6

So, CCN(CC)C(C)CN1c2ccccc2Sc2ccccc21 (stereo not given) ? Its IC50 was 20.5

Lookup result for CC(=O)N1CCN(c2ccc(OCC3COC(Cn4ccnc4)(c4ccc(Cl)cc4Cl)O3)cc2)CC1 (stereo not given) ; measured IC50: 2.6

The molecule listed as CCN(CC)CCNC(C(=O)OCCC(C)C)c1ccccc1 (stereo not given) shows IC50 equal to 9.12

Recorded result, CCCNCC(O)COc1ccccc1C(=O)CCc1ccccc1 (stereo not given) , IC50: 15.5

Measured IC50 of "CCN(CC)CCNC(=O)c1c(C)[nH]c(/C=C2\C(=O)Nc3ccc(F)cc32)c1C" : 6.1

The molecule listed as "COc1ccc2c(c1)[C@]13CCCC[C@@H]1[C@H](C2)N(C)CC3" has a reported IC50 of 10.5

The molecule "N=C(N)N/N=C/c1c(Cl)cccc1Cl" showed IC50 equal to 4.85

The reported value for "Cc1ncc(C[n+]2csc(CCO)c2C)c(N)n1" in terms of IC50 is 4350

Record summary for CN(C)CCC=C1c2ccccc2COc2ccccc21 [DOXEPIN] : reported IC50 = 11.2

Short answer for CC(CCc1ccc(O)cc1)NCCc1ccc(O)c(O)c1 (stereo not given) : IC50 was 4.17

Lab book: IC50 of Clc1ccc(C(OCCN2CCCCC2)c2ccccc2)cc1 (stereo not given) noted as 14.9

Measured IC50, Cc1cc(C(C#N)c2ccc(Cl)cc2)c(Cl)cc1NC(=O)c1cc(I)cc(I)c1O (stereo not given) : 3

For reference, reported IC50 for c1ccc(CC2NCCc3ccccc32)cc1 (stereo not given) stands at 82.1

###

Molecular target: Solute carrier family 22 member 1 (Homo sapiens, UniProt O15245)
Sequence (O15245 whole entry): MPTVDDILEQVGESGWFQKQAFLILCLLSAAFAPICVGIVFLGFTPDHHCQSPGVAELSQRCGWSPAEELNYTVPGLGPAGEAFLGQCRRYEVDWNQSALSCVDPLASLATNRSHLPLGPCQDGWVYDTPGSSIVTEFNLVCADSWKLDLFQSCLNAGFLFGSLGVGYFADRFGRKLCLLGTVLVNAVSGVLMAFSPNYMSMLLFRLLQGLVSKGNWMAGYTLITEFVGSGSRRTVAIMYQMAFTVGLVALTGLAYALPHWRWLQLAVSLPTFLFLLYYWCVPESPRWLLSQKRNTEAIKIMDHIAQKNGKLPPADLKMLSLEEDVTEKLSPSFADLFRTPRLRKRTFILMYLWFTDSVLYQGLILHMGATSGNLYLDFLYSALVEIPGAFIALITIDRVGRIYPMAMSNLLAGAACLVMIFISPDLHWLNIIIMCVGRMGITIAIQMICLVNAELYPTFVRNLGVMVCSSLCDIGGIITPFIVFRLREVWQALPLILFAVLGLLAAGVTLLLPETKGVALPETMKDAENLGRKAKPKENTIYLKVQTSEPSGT
Assay: Inhibition of human OCT1 expressed in HEK293 cells assessed as decrease in uptake of YM155 after 1 min
Measured property: IC50 (µM)
Please give a number only; it is taken to be in µM.

Kindly note the recorded IC50 for "CN/C(=N/CCSCc1nc[nH]c1C)NC#N" , which is 149
